# subject-of-test: T1, Bicoid DBD-GST (Bcd) (UniProt P09081 83-170)
# T1 sequence: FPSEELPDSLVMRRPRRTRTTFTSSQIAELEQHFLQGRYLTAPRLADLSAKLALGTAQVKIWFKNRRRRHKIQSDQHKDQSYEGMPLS
# experiment-notes: competitive fluorescence anisotropy (HiP-FA); mean of replicates 92.598, 91.655; HiP-FA: 33 mM phosphate pH 7.0, 90 mM NaCl, 0.01% Tween 20, 0.1 mM DTT, 0.5% agarose; conventional titration and EMSA: 20 mM Tris-acetate pH 7.0, 50 nM (sic) NaCl, 0.01% Tween-20, 0.1 mM DTT
# condition-notes: protein: recombinant; tags: N-terminal GST; blunt, G:G mismatch at position 6

binder | Kd (nM)
Bcd competitor 22 (C8G) (dsDNA) DNA 1: TCGACGGTAATGCCTA DNA 2: TAGGCATTACGGTCGA | 92.1

Value source: paper PMC5913336
